# methodNotes: Plasma pharmacokinetics after single oral doses (SAD cohorts)
# Format: in vivo, human
# settings: human, plasma; single oral dose 25 mg; median (range); n = 6; read-out: Tmax
recordedMetric: Tmax
Write down the value, and be sure its unit follows.

Asked: Entry under review: CCc1nc(-c2ccc3c(c2)CC[C@H]3NC(=O)c2cnn(C)c2)no1 . Reported Tmax?
Given back: 1.8 h

====

# methodNotes: Plasma pharmacokinetics after single oral doses (SAD cohorts)
# Type: in vivo, human
# settings: human, plasma; single oral dose 1 mg; geometric mean (geometric CV%); n = 6; read-out: AUC24
recordedMetric: AUC (ng·h/mL)
One number for each entry, in ng·h/mL.

Asked: Entry under review: CCc1nc(-c2ccc3c(c2)CC[C@H]3NC(=O)c2cnn(C)c2)no1 . Reported AUC?
Given back: 50

====

# methodNotes: Plasma pharmacokinetics after single oral doses (SAD cohorts)
# Type: in vivo, human
# settings: human, plasma; single oral dose 25 mg; geometric mean (geometric CV%); n = 6; read-out: AUC24
recordedMetric: AUC (ng·h/mL)
Numbers only, in ng·h/mL.

Asked: Entry under review: CCc1nc(-c2ccc3c(c2)CC[C@H]3NC(=O)c2cnn(C)c2)no1 [Aficamten] . Reported AUC?
Given back: 1490

====

# methodNotes: Plasma pharmacokinetics in the CYP2D6 poor metabolizer cohort
# Type: in vivo, human
# settings: human, plasma, oral, 10 mg, CYP2D6 poor metabolizers, single 10 mg; arithmetic mean ± SD; n = 7; read-out: t½ (converted)
# Experimental: CYP2D6 genotypes were determined at screening for all study participants; those identified as CYP2D6-PMs were excluded from the SAD and MAD cohorts but were invited to participate in the CYP2D6-PM cohort. The first individual in the CYP2D6-PM cohort was dosed after the SAD 25-mg cohort (Figure 1). […] Nine participants were randomized (7:2), with a sentinel dosing group consisting of the first 2 participants treated. […]
recordedMetric: half-life (h)
One number for each entry, in h.

Asked: Entry under review: CCc1nc(-c2ccc3c(c2)CC[C@H]3NC(=O)c2cnn(C)c2)no1 . Reported half-life?
Given back: 110

====

# methodNotes: Plasma pharmacokinetics after multiple oral doses (MAD cohorts)
# Type: in vivo, human
# settings: human, plasma, oral, 7.5 mg, Day 17; 7.5 mg qd × 17 d; median (range); n = 6; read-out: Tmax,ss
recordedMetric: Tmax (h)
One number for each entry, in h.

Asked: Entry under review: CCc1nc(-c2ccc3c(c2)CC[C@H]3NC(=O)c2cnn(C)c2)no1 [Aficamten] . Reported Tmax?
Given back: 1

====

# methodNotes: Plasma pharmacokinetics after multiple oral doses (MAD cohorts)
# Assay type: in vivo, human
# settings: human, plasma, oral, 10 mg, Day 1; 10 mg qd × 14 d; geometric mean (geometric CV%); n = 6; read-out: Cmax
recordedMetric: Cmax

Asked: Entry under review: CCc1nc(-c2ccc3c(c2)CC[C@H]3NC(=O)c2cnn(C)c2)no1 [Aficamten] . Reported Cmax?
Given back: 54.4 ng/mL

====

# methodNotes: Plasma pharmacokinetics after single oral doses (SAD cohorts)
# Format: in vivo, human
# settings: human, plasma; single oral dose 3 mg; mean ± SD; n = 5; read-out: Vz/F
recordedMetric: Vd/F (L)
Answers are plain numbers, in L.

Asked: Entry under review: CCc1nc(-c2ccc3c(c2)CC[C@H]3NC(=O)c2cnn(C)c2)no1 [Aficamten] . Reported Vd/F?
Given back: 393
